- System: NCI-H1092 (Small Cell Lung Carcinoma)
- protocol.notes: Bliss excess, mean over the matrix (fraction); higher = more synergy
Exercise: for every item that follows, state its recorded Bliss excess.
One number for each entry.

{"compound": "Cc1cc2ncnn2cc1Nc1ncc2c(n1)n(C1CCOCC1)c(=O)n2C [AZD7648] + C=CCn1c(=O)c2cnc(Nc3ccc(N4CCN(C)CC4)cc3)nc2n1-c1cccc(C(C)(C)O)n1 [AZD1775] (first compound max 10 µM, partner max 1 µM)", "Bliss excess": -0.0873}

--- query ---
Prompt: Reported Bliss excess, compound CN(CCO)CC[C@H](CSc1ccccc1)Nc1ccc(S(=O)(=O)NC(=O)c2ccc(N3CCC([C@@H](O)c4ccccc4-c4ccc(Cl)cc4)CC3)cc2)cc1S(=O)(=O)C(F)(F)F [AZD4320] + C[C@@H]1COCCN1C2=NC(=NC(=C2)C3(CC3)[S@](=N)(=O)C)C4=C5C=CNC5=NC=C4 [AZD6738] (first compound max 1 µM, 7x7, partner max 10 µM) : ____
Completion: -0.0167

* * *

- Test system: EJM (Plasma Cell Myeloma)
- protocol.notes: combination Emax (second highest fraction inhibited in the dose matrix, 72 h); higher = more inhibition; extreme values may be limits of the assay
Exercise: for every item that follows, state its recorded combination Emax.
Give bare numbers.

{"compound": "CC(=O)c1c(C)c2cnc(Nc3ccc(N4CCNCC4)cn3)nc2n(C2CCCC2)c1=O [Palbociclib] + CC1(C)CCC(CN2CCN(c3ccc(C(=O)NS(=O)(=O)c4ccc(NCC5CCOCC5)c([N+](=O)[O-])c4)c(Oc4cnc5[nH]ccc5c4)c3)CC2)=C(c2ccc(Cl)cc2)C1 [Venetoclax] (first compound max 10 µM, 7x7, partner max 1 µM)", "combination Emax": 0.159}
{"compound": "Cc1c2c(nn1C)CSCc1cc(n(C)n1)CSc1cc(c3ccccc3c1)OCCCc1c(C(=O)O)n(C)c3c-2c(Cl)ccc13 [AZD5991] + C=CCn1c(=O)c2cnc(Nc3ccc(N4CCN(C)CC4)cc3)nc2n1-c1cccc(C(C)(C)O)n1 [AZD1775] (first compound max 1 µM, partner max 1 µM)", "combination Emax": 1}

Prompt: Fill in the recorded combination Emax for this compound, with EJM (Plasma Cell Myeloma) as test system: Cn1cnc2c(F)c(Nc3ccc(Br)cc3Cl)c(C(=O)NOCCO)cc21 [Selumetinib] + C[C@@H]1COCCN1C2=NC(=NC(=C2)C3(CC3)[S@](=N)(=O)C)C4=C5C=CNC5=NC=C4 [AZD6738] (first compound max 10 µM, 7x7, partner max 10 µM)
Completion: 0.855

* * *

- Test system: EW-1 (Ewing's Sarcoma)
- protocol.notes: Bliss excess, mean over the matrix (fraction); higher = more synergy
Exercise: for every item that follows, state its recorded Bliss excess.
Numbers only.

{"compound": "CN(C)CCCOc1ccc(-c2ccc3ncc4c(c3c2)n(C2CCOCC2)c(=O)n4C)cn1 [AZD0156] + O=C(c1cc(Cc2n[nH]c(=O)c3ccccc23)ccc1F)N1CCN(C(=O)C2CC2)CC1 [Olaparib] (first compound max 3 µM, partner max 3 µM)", "tested.target": "EW-1 (Ewing's Sarcoma)", "Bliss excess": 0.231}

--- query ---
Prompt: Reported Bliss excess, compound C[C@@H](c1ccc2nccn2c1)n1nnc2ncc(-c3cnn(C)c3)nc21 [Savolitinib] + Cc1c2c(nn1C)CSCc1cc(n(C)n1)CSc1cc(c3ccccc3c1)OCCCc1c(C(=O)O)n(C)c3c-2c(Cl)ccc13 [AZD5991] (first compound max 1 µM, 7x7, partner max 1 µM) : ____
Completion: -0.0001

* * *

- Test system: SKN (Other Solid Carcinomas)
- protocol.notes: combination Emax (second highest fraction inhibited in the dose matrix, 72 h); higher = more inhibition; extreme values may be limits of the assay
Use 0.5 as the dividing line for combination Emax, with the line itself on the Yes side and lower values as No.

Reference set (5 entries):
{"compound": "C[C@@H]1COCCN1c1cc(C2([S@](C)(=N)=O)CC2)nc(-c2ccnc3[nH]ccc23)n1 [AZD6738] + O=C(c1cc(Cc2n[nH]c(=O)c3ccccc23)ccc1F)N1CCN(C(=O)C2CC2)CC1 [Olaparib] (first compound max 10 µM, 7x7, partner max 10 µM)", "label.value": "No"}
{"compound": "Cn1cnc2c(F)c(Nc3ccc(Br)cc3Cl)c(C(=O)NOCCO)cc21 [Selumetinib] + CCN(CCO)CCCOc1ccc2c(Nc3cc(CC(=O)Nc4cccc(F)c4)[nH]n3)ncnc2c1 [AZD2811] (first compound max 10 µM, 7x7, partner max 1 µM)", "label.value": "No"}
{"compound": "C[C@@H]1COCCN1c1cc(C2([S@](C)(=N)=O)CC2)nc(-c2ccnc3[nH]ccc23)n1 [AZD6738] + Nc1ccn([C@@H]2O[C@H](CO)[C@@H](O)C2(F)F)c(=O)n1 [Gemcitabine] (first compound max 10 µM, 7x7, partner max 0.3 µM)", "label.value": "Yes"}
{"compound": "Cc1c2c(nn1C)CSCc1cc(n(C)n1)CSc1cc(c3ccccc3c1)OCCCc1c(C(=O)O)n(C)c3c-2c(Cl)ccc13 [AZD5991] + C1CN(CCC1(C(=O)N[C@@H](CCO)C2=CC=C(C=C2)Cl)N)C3=NC=NC4=C3C=CN4 [Capivasertib] (first compound max 1 µM, 7x7, partner max 3 µM)", "label.value": "No"}
{"compound": "Cc1c2c(nn1C)CSCc1cc(n(C)n1)CSc1cc(c3ccccc3c1)OCCCc1c(C(=O)O)n(C)c3c-2c(Cl)ccc13 [AZD5991] + C[C@@H]1COCCN1C2=NC(=NC(=C2)C3(CC3)[S@](=N)(=O)C)C4=C5C=CNC5=NC=C4 [AZD6738] (first compound max 1 µM, 7x7, partner max 10 µM)", "label.value": "No"}

Consider the record given below.
Prompt: Would you say NC1(C(=O)N[C@@H](CCO)c2ccc(Cl)cc2)CCN(c2ncnc3[nH]ccc23)CC1 [Capivasertib] + COc1nnc2ccc(N3CCC(c4ccc(OCCN5CCN(C)C(=O)[C@H]5C)cc4)CC3)nn12 [AZD5153] (first compound max 10 µM, 7x7, partner max 1 µM) shows combination Emax at minimum 0.5?
Completion: Yes

* * *

- Tested on: ML-2 (Acute Myeloid Leukemia)
- protocol.notes: combination Emax (second highest fraction inhibited in the dose matrix, 72 h); higher = more inhibition; extreme values may be limits of the assay
Exercise: for every item that follows, state its recorded combination Emax.
Numbers only.

# count of solved cases: 3
{"compound": "COc1cc2c(cc1OCCCCCOc1cc3c(cc1OC)C(=O)N1C=C(C)C[C@H]1C=N3)N=C[C@@H]1CC(C)=CN1C2=O [SG3199] + O=C(c1cc(Cc2n[nH]c(=O)c3ccccc23)ccc1F)N1CCN(C(=O)C2CC2)CC1 [Olaparib] (first compound max 0.001 µM, 7x7, partner max 10 µM)", "quantitative.result": 0.436}
{"compound": "COc1nnc2ccc(N3CCC(c4ccc(OCCN5CCN(C)C(=O)[C@H]5C)cc4)CC3)nn12 [AZD5153] + C=CCn1c(=O)c2cnc(Nc3ccc(N4CCN(C)CC4)cc3)nc2n1-c1cccc(C(C)(C)O)n1 [AZD1775] (first compound max 1 µM, partner max 1 µM)", "quantitative.result": 1}
{"compound": "CC1(C)CCC(CN2CCN(c3ccc(C(=O)NS(=O)(=O)c4ccc(NCC5CCOCC5)c([N+](=O)[O-])c4)c(Oc4cnc5[nH]ccc5c4)c3)CC2)=C(c2ccc(Cl)cc2)C1 [Venetoclax] + C[C@@H](Nc1cc(F)cc(F)c1)c1cc(C(=O)N(C)C)cc2c(=O)cc(N3CCOCC3)oc12 [AZD8186] (first compound max 1 µM, 7x7, partner max 3 µM)", "quantitative.result": 0.983}

Each compound below has a reported value. Please supply its combination Emax.
1. Cc1c2c(nn1C)CSCc1cc(n(C)n1)CSc1cc(c3ccccc3c1)OCCCc1c(C(=O)O)n(C)c3c-2c(Cl)ccc13 [AZD5991] + C=CCn1c(=O)c2cnc(Nc3ccc(N4CCN(C)CC4)cc3)nc2n1-c1cccc(C(C)(C)O)n1 [AZD1775] (first compound max 1 µM, partner max 1 µM)
2. COc1nnc2ccc(N3CCC(c4ccc(OCCN5CCN(C)C(=O)[C@H]5C)cc4)CC3)nn12 [AZD5153] + Cc1c2c(nn1C)CSCc1cc(n(C)n1)CSc1cc(c3ccccc3c1)OCCCc1c(C(=O)O)n(C)c3c-2c(Cl)ccc13 [AZD5991] (first compound max 1 µM, 7x7, partner max 1 µM)
3. CN(CCO)CC[C@H](CSc1ccccc1)Nc1ccc(S(=O)(=O)NC(=O)c2ccc(N3CCC([C@@H](O)c4ccccc4-c4ccc(Cl)cc4)CC3)cc2)cc1S(=O)(=O)C(F)(F)F [AZD4320] + C[C@@H]1COCCN1C2=NC(=NC(=C2)C3(CC3)[S@](=N)(=O)C)C4=C5C=CNC5=NC=C4 [AZD6738] (first compound max 1 µM, 7x7, partner max 10 µM)

Completion:
1. 1
2. 1
3. 1
